Origin of measurements: PubChem BioAssay (NCI)

This listing pairs compounds with measured TGI.
System: OVCAR-4 ovarian
Experiment description: NCI tumour cell line growth inhibition, 48 h
*1 amine or outer side, *2 acyl side, *3 side chain or, on linkers, in order; H or OH if unused. Where a SMILES comes first, the peptide text is derived from it. [ ]: non-standard residue; d: D form. The star is where a group is joined. X31 = CC(=O)N(C)SCC(N[*:1])C(=O)[*:2]; X47 = CC(=O)N(C)SCC(N*)/C(O)=N\O; Cbz = O=C(OCc1ccccc1)*; Bn = c1ccc(C*)cc1; For = O=C*
Result type: TGI

- Compound: "CC(C)(C)c1cc(CC2C(=O)c3ccccc3C2=O)cc(C(C)(C)C)c1O"
  Reading: "> 100 µM"
- Compound: "COc1cc(C2SCC(=O)N2c2cc(Cl)c(Cl)cc2Cl)cc(OC)c1OC (centres undefined)"
  Reading: "> 100 µM"
- Compound: "CS(=O)(=O)c1ccc(/C=N/NC(N)=S)cc1"
  Reading: "> 100 µM"
- Compound: "CC(=O)N(C)SCC(NC(=O)C(Cc1ccccc1)NC(=O)OCc1ccccc1)C(=O)NC(Cc1ccccc1)C(=O)NC(Cc1cn(C=O)c2ccccc12)C(=O)NC(CCCCNC(=O)OCc1ccccc1)C(=O)NC(C(=O)NC(CSN(C)C(C)=O)/C(O)=N\\O)C(C)OCc1ccccc1 (centres undefined) (Cbz-F[X31]FW(For)K(Cbz)T(Bn)-X47; configuration not given here)"
  Reading: "> 100 µM"
- Compound: "CCN(CC)CCOCC[C@H]1CC[C@H]2[C@@H]3[C@H](C)Cc4cc(OS(N)(=O)=O)ccc4[C@H]3CC[C@]12C"
  Reading: "2.29 µM"
- Compound: "COc1cccc2c1C(=O)C=CC2=O"
  Reading: "3.77 µM"
- Compound: "CC1(C)N=C(N)N=C(N)N1c1cccc(CCCCc2cccc(S(=O)(=O)F)c2)c1"
  Reading: "> 100 µM"
- Compound: "COC(=O)CCc1cc(OC)c(O)c(C(Cc2ccc(OC)c(OC)c2)C(=O)OC)c1 (centres undefined)"
  Reading: "> 100 µM"
- Compound: "N#CN=C(N)c1sc2nc3c(c(-c4ccc(Br)cc4)c2c1N)CCCC3"
  Reading: "26.9 µM"

====

This listing pairs compounds with measured GI50.
Test system: ACHN renal
Experiment description: NCI tumour cell line growth inhibition, 48 h

- Compound: "O=C(NC1CCN(Cc2ccccc2)CC1)c1cc(-c2ccncc2)nc2ccc(Cl)cc12"
  GI50: "6.71 µM"
- Compound: "FC(F)(F)c1nc(N2CCCC2)ncc1-c1nnnn1-c1ccc(Cl)cc1"
  GI50: "18.7 µM"
- Compound: "CC12CCC3C(CCC4Cc5[nH]c6ccccc6c5CC43C)C1CCC2O (stereo unspecified)"
  GI50: "0.967 µM"
- Compound: "N=C(N)c1ccc(OCc2cccc(COc3ccc(C(=N)N)cc3)c2)cc1"
  GI50: "17.8 µM"
- Compound: "COc1cc2c(cc1O)CC[C@@H]1[C@@H]2CC[C@]2(C)[C@@H](NCCN(C)C)CC[C@@H]12"
  GI50: "0.459 µM"
- Compound: "OC(c1cccc(-n2ccc(C(F)(F)F)n2)c1)c1cnccc1NC1CCCCCC1 (stereo unspecified)"
  GI50: "1.65 µM"
- Compound: "CCS(=O)(=O)N1CCC(C(C)n2c(C)c(C(=O)NCc3c(OC)cc(C)[nH]c3=O)c3ccccc32)CC1 (stereo unspecified)"
  GI50: "> 100 µM"
- Compound: "CC1(C)N=C(N)N=C(N)N1c1cccc(CCCCc2cccc(S(=O)(=O)F)c2)c1"
  GI50: "11.8 µM"
- Compound: "COc1ccc(-c2cc(-c3cc(Cl)ccc3Cl)nc3n[nH]c(N)c23)cc1"
  GI50: "37.8 µM"
- Compound: "F"
  GI50: "3050 µM"
- Compound: "COC(=O)CCC(=O)C(=O)OC"
  GI50: "16300 µM"
